TGI listing for selected compounds.
tested on: M14 melanoma; assay: NCI tumour cell line growth inhibition, 48 h
parameter: TGI

C/C(CC(O)(C(F)(F)F)C(F)(F)F)=N\O = > 10 µM
CCNc1ccc2c(c1)C(=O)N(OS(C)(=O)=O)C2=O = > 100 µM
COC(OC)c1cccnc1C = > 100 µM
CCOC(=N)CC(=O)Nc1ccccc1CC = > 100 µM
O=C(NC1=C(Cl)C(=O)c2ccccc2C1=O)C(=O)c1c(O)c2ccccc2oc1=O = 4.4 µM
C#CCn1c(I)cc2c(c1=O)COC(=O)[C@]2(O)CC = > 100 µM
Cn1cc(-c2csc(-c3ccc(Cl)cc3)n2)c2cccnc21 = 24.8 µM
O=S1(=O)N=C(SCc2c[nH]c3ccccc23)N(c2ccccc2)c2ccncc21 = > 100 µM
O=C1CC(c2cccc([N+](=O)[O-])c2)C2(C(=O)NC(=S)NC2=O)C(c2cccc([N+](=O)[O-])c2)C1 (configuration not stated) = 58.5 µM
O=c1cc(-c2ccccc2)oc2cc(OCCCCCCCCCCOc3ccc4c(=O)cc(-c5ccccc5)oc4c3)ccc12 = > 100 µM
C[C@H](CCc1nc(C#N)c(N)o1)[C@H]1CC[C@H]2[C@@H]3CCC4C[C@@H](O)CC[C@]4(C)[C@H]3C[C@@H](O)[C@]12C (some centres not stated) = 34.2 µM
CCSc1c2ccccc2nc2c(OC)ccc(OC)c12 = 95.8 µM
Cc1cc(C)nc(NC(=O)COc2ccc(Cl)cc2)c1 = > 100 µM
Cc1cccc(C=NC23CC4CC(CC(C4)C2)C3)c1 = > 100 µM
C=C1C(=O)OC2C[C@@]3(C)CCCC(=C)C3CC12 (some centres not stated) = 20.6 µM
O=C(C#Cc1ccccc1)NC/C=C/c1ccccc1 = > 100 µM
CC1(C)Cc2ccccc2C(C)(Cl)C(=O)N1 (configuration not stated) = > 10 µM
CCOC1=C/C(=N\Nc2ccc([N+](=O)[O-])cc2)CCC1 = > 100 µM
O=C(O)CCN1C(=S)CSC1=S = > 100 µM
CC(=O)c1nc(-c2ccc(C[C@@H](CNC(=O)CN(C)C)NC(=O)c3ccc(OC(C)C)c(Cl)c3)cc2)cn1C = 2.54 µM
COc1ccc(N=c2nc3sc4cc(Cl)ccc4n3c(N)c2C#N)cc1 = > 100 µM
CCN(CC)CC[n+]1ccc2c(C)c3[nH]c4ccccc4c3c(C)c2c1 = 3.28 µM
Oc1ccc(Nc2nc(Cl)c3[nH]cnc3n2)cc1 = > 100 µM
CC(C)=CCNc1ncnc2c1ncn2CCC(=O)O = > 100 µM
Cc1cccc(NC(=S)Nc2cccc(Cl)c2)n1 = > 100 µM
CN(C)Cc1cc(/C=C/C(=O)c2ccc(Br)cc2)cc(CN(C)C)c1O = > 100 µM
CC(NC1CCCC[C@@H]1O)c1ccccc1 (some centres not stated) = > 100 µM
C=CCCCN(C(=O)c1ccccc1)c1ccc(C(=O)OC)o1 = > 100 µM
CC12CC(c3ccccc3O1)C(C(=O)Nc1nccs1)C(=O)N2 (configuration not stated) = > 100 µM
C[C@]12CCC3c4ccc(O)cc4CCC3C1CC[C@@H]2NC(=O)/C=C/c1ccc(O)c(O)c1 (some centres not stated) = 22.9 µM
Cc1cc(O)c2c(c1)OC1(C)CCC3C(C)(C)CCCC34COC2C14 (configuration not stated) = 29.1 µM
C=C1c2nc3ccccc3n2C=C(c2ccccc2)N1c1ccc(C)cc1 = > 100 µM

----------
TGI listing for selected compounds.
test system: SNB-75 CNS; assay: NCI tumour cell line growth inhibition, 48 h
parameter: TGI

CCOC(=N)CC(=O)Nc1ccccc1CC = > 100 µM
C/C(=C\c1ccccc1)C(=O)c1c(C)cc(C)cc1C = > 100 µM
COC(=O)N[C@@H](C)CNc1nccc(-c2cn(C(C)C)nc2-c2cc(Cl)cc(NS(C)(=O)=O)c2F)n1 = > 100 µM

----------
test system: SR leukemia; assay: NCI tumour cell line growth inhibition, 48 h
TGI listing for selected compounds.
parameter: TGI

Cc1cccc(NC(=S)Nc2cccc(Cl)c2)n1 = > 100 µM
Nc1ccnc2c1ncn2[C@H]1C[C@H](O)[C@@H](CO)O1 = > 100 µM
CCOP(=O)(OCC)C(c1ccccc1)N(C(=O)NC(F)(F)F)c1ccc(C)cc1 (stereo not drawn) = > 100 µM

----------
tested on: RXF 393 renal; assay: NCI tumour cell line growth inhibition, 48 h
TGI listing for selected molecules.
parameter: TGI

CC(=O)/C(=N\N=C(N)N)c1ccccc1 = > 100 µM
OC[C@H]1N[C@H](CO)[C@@H](O)[C@H]1O = > 100 µM
Cc1cc2ccccc2n2c1nc1ccc(O)cc12 = > 10 µM
O=Cn1c2ccccc2c2ccccc21 = > 100 µM
COC(=O)CCC(NC(=S)N/N=C(\C)c1cccs1)C(=O)OC (centres undefined) = > 100 µM
O=[N+]([O-])/C(Cl)=C(\NCCO)C(Cl)=C(Cl)Cl = > 96.3 µM
COc1cccc(C=NC23CC4CC(CC(C4)C2)C3)c1 = > 100 µM
COc1ccc(/C=C/C(=O)c2cc(CN(C)C)c(O)c(CN(C)C)c2)cc1 = > 100 µM
COC1CCC(CO)OO1 (centres undefined) = > 100 µM
CN1CCC(O)(OC(=O)C(c2ccccc2)C2(O)CCCC2)CC1 (centres undefined) = > 100 µM
C=C1c2nc3ccccc3n2C=C(c2ccccc2)N1c1ccc(C)cc1 = > 100 µM
C/C(=N/NC(N)=S)C(CN1CCOCC1)C(C1=C(O)c2ccccc2OC1)c1ccccc1 (centres undefined) = > 100 µM
COc1ccc(N=c2nc3sc4cc(Cl)ccc4n3c(N)c2C#N)cc1 = > 100 µM
Cc1cc(C)nc(NC(=O)COc2ccc(Cl)cc2)c1 = > 100 µM
C=C1C(=O)O[C@@H]2C[C@@H](C)[C@@H]3C=CC(=O)[C@@]3(C)[C@@H](OC(=O)CCCC(=O)O[C@H]3[C@@H]4C(=C)C(=O)O[C@@H]4C[C@@H](C)[C@@H]4C=CC(=O)[C@]43C)[C@H]12 = 0.047 µM
CCOC(=O)/C=C/c1ccc([N+](=O)[O-])o1 = 3.86 µM
N/C(=N\N=C/c1c(O)cc(O)cc1O)NO = > 100 µM
COc1ccc(C(=O)c2ccccc2)c(O)c1 = > 100 µM
COc1ccc2c(c1)[n+](=O)c(/C=C/C(=O)c1cc(OC)c(OC)c(OC)c1)c(C)n2[O-] = > 100 µM
O=C(Oc1cncc(Cl)c1)c1cc2ccccc2sc1=O = 91.1 µM
C#CCn1c(I)cc2c(c1=O)COC(=O)[C@]2(O)CC = > 100 µM
COc1ccc(N=C(C)C(C)=Nc2ccc(OC)cc2)cc1 = > 100 µM
CCOc1ccc2cc(-c3nn(CC4CCN(C)CC4)c4ncnc(N)c34)ccc2c1 = 18.6 µM
CN(CCOc1ccc(NS(C)(=O)=O)cc1)CCc1ccc(NS(C)(=O)=O)cc1 = > 100 µM

----------
tested on: EKVX NSCLC; test: NCI tumour cell line growth inhibition, 48 h
TGI listing for selected compounds.
parameter: TGI

COc1ccccc1/C=C(\NC(=O)c1ccccc1)c1nc2ccccc2[nH]1 = > 100 µM
Cc1c2oc(=O)c(C#N)cc2c2ccccn12 = > 100 µM
CC(=O)c1nc(-c2ccc(C[C@@H](CNC(=O)CN(C)C)NC(=O)c3ccc(OC(C)C)c(Cl)c3)cc2)cn1C = 17.8 µM
COc1ccc(Cn2c(=O)c(OS(=O)(=O)C(F)(F)F)c(C)c3cc4ccccc4cc32)cc1 = > 100 µM
CN1Cc2ccccc2C2(COc3ccccc3C2=O)C1 (stereo unspecified) = > 100 µM
O=C(C#Cc1ccccc1)NC/C=C/c1ccccc1 = > 100 µM
Cc1nc(C(=O)OCc2ccccc2)cc(OCc2ccccc2)c1C = 52.7 µM
CN(C)Cc1cc(/C=C/C(=O)c2ccc(Br)cc2)cc(CN(C)C)c1O = 55.2 µM
CCOC(=O)C(Cc1cc(OC)c(CC(C(=O)OCC)C(=O)OCC)cc1OC)C(=O)OCC = > 100 µM
COc1ccc(N=c2nc3sc4cc(Cl)ccc4n3c(N)c2C#N)cc1 = > 100 µM
O=C(CC1(O)CCCCC1)OC1CCCC1 = > 100 µM
Oc1ccc(Nc2nc(Cl)c3[nH]cnc3n2)cc1 = > 100 µM
O=C1OC2(CCCCC2)C(Oc2ccc(Cl)cc2)=C1F = > 100 µM
C[C@@H]([C@H]1CC[C@@]2(C)[C@@H]3CC[C@@H]4C(=CC3=CC[C@]12C)CC[C@H](N(C)C)C4(C)C)N(C)C = > 100 µM
COc1ccc(OCC(=O)O)c2c1CCC(C)C2=O (stereo unspecified) = > 100 µM
COc1ccc(C(=O)c2ccccc2)c(O)c1 = > 100 µM
